Every entry's value here was drawn from the supplement of paper PMC10127200.

Tested on: DU145
test-protocol: Euclidean distance of Cell Painting phenotypic profile (signed KS, 77 features) to DMSO centroid (dimensionless distance); 5 or 10 uM (library dependent); higher = stronger phenotypic change vs DMSO (phenoactivity)
measurement-context: 48 h
observation-type: Euclidean distance
Respond numerically, and do not add a unit to the figure.

Request the reported Euclidean distance associated with COc1cc(NC(C)CCCN)c2ncccc2c1 (centres undefined) [Primaquine Diphosphate]
1.16

Request the reported Euclidean distance associated with `O=C(Nc1ccc(Cl)cc1)Nc1ccc(Cl)c(Cl)c1`
1.62

Request the reported Euclidean distance associated with `C[C@H](NC(=O)CCC(F)(F)F)C(=O)N[C@@H]1C(=O)N(CCO)c2ncccc2-c2ccccc21`
1.3

Request the reported Euclidean distance associated with `Cc1nc(N(C)C(=O)Cc2ccc(-c3ccccn3)cc2)sc1S(N)(=O)=O`
1.07
